The measurements presented in this section are drawn from PubChem BioAssay AID179.

# Tested on: CEM cells HIV-1 protection, formazan growth assay
# test-name: NCI AIDS Antiviral Assay
measured-endpoint: EC50

// compound "CC1=CC(C)(C)N=C2SC(COc3ccccc3)=NN12" , assay CEM cells HIV-1 protection, formazan growth assay, EC50 value: > 200 µM

CEM cells HIV-1 protection, formazan growth assay data for "COc1cc2c(cc1OC)C(Cc1cc(Br)c(OC)c(OC)c1)=[N+](C)CC2" ; its EC50: > 447 µM

Entry CC1=Nc2ccccc2SC(c2c(Cl)cccc2Cl)C1 (stereo unspecified) : EC50 on CEM cells HIV-1 protection, formazan growth assay = > 22.4 µM

Record "CCCCCCCC(=O)c1ccc(O)c(C(=O)Nc2ccc(C(F)(F)F)cc2)c1" ; system CEM cells HIV-1 protection, formazan growth assay; EC50 = > 33.1 µM

Test item "S=C1NCCO1" ; CEM cells HIV-1 protection, formazan growth assay; reported EC50 was > 200 µM

Form field, EC50 with CEM cells HIV-1 protection, formazan growth assay, item "Nc1c(N2CCOCC2)c(=O)nc2[nH]/c(=C\c3ccccc3O)c(=O)n12" : > 200 µM

// EC50 (CEM cells HIV-1 protection, formazan growth assay) for "Cc1cc(N(CCC#N)CCC#N)ccc1/C=C(\NC(=O)/C=C/c1ccccc1)NC(=O)Nc1ccccc1C" = > 9.77 µM

The compound "O=c1[nH]c2ccccc2c(=O)n1/N=C\c1ccccc1O" , tested on CEM cells HIV-1 protection, formazan growth assay, showed EC50 of > 200 µM

Could you tell me EC50 for each of these compounds? They are listed below.
1. CC(C)(C)[Si](C)(C)OCC1OC(n2ccc(=O)[nH]c2=O)C(O[Si](C)(C)C(C)(C)C)[C@]12O[C@@H]2CO (stereo partly specified)
2. CCOC(=O)c1[nH]n(-c2ccccc2)c(=O)c1/C=N/C(=S)NCc1ccccc1

output:
> 200 µM
> 200 µM

The compound CCOC(=O)C1CCCc2sc(N)c(C#N)c21 (stereo unspecified) on CEM cells HIV-1 protection, formazan growth assay: EC50 was > 200 µM

###

# Tested on: CEM cells HIV-1 protection, formazan growth assay
# test-name: NCI AIDS Antiviral Assay
# study-conditions: measured here: growth of uninfected CEM cells
Param label: returns yes when IC50 < 80 µM, returns no otherwise, including exact equality.

input: Lab note: IC50 threshold 80 µM. Does this compound come in strictly under it? C=CCC1C2CCC(O[Si](C(C)C)(C(C)C)C(C)C)(C(C(=O)OC)C2)C1O (stereo not drawn)
output: no

input: Lab note: confirm whether the reported IC50 for this compound is below 80 µM, equality not counting. compound: CC(C)N(C(=O)C12C3C4C1C1C2C3C41C(O)C(C)(C)C)C(C)C (stereo not drawn)
output: yes

input: Does the reported IC50 of "NCCNCCCNC(=O)c1cc(-c2ccccc2)nc2ccccc12" stay below 80 µM?
output: yes

input: Lab note: IC50 threshold 80 µM. Does this compound come in strictly under it? CCOC(=O)C(NC(=O)CC(C)C)(N1CCN(c2cc3c(cc2F)c(=O)c(C(=O)O)cn3C2CC2)CC1)C(F)(F)F (stereo not drawn)
output: yes

input: Please state whether IC50 is below 80 µM for COC1CCN(N(C)C)O1 (stereo not drawn)
output: no

input: Could you please tell me whether IC50 recorded for "COC(=O)CCC1=C(C)c2cc3[n-]c(cc4nc(cc5[n-]c(cc1n2)c(CCC(=O)OC)c5C)C(C(C)=O)=C4C)c(C(C)=O)c3C.[Ni+2]" is less than 80 µM?
output: no

input: Below 80 µM on IC50? Entry "O=S(=O)(O)c1cc(O)c2c(O)cc(S(=O)(=O)O)c(N=Nc3ccc(/C=C/c4ccc(N=Nc5c(S(=O)(=O)O)cc(O)c6c(O)cc(S(=O)(=O)O)cc56)cc4S(=O)(=O)O)c(S(=O)(=O)O)c3)c2c1"
output: yes

###

Could you please report measured pIC50 for the items listed next?
# System: CEM cells HIV-1 protection, formazan growth assay
# test-name: NCI AIDS Antiviral Assay
# study-conditions: measured here: growth of uninfected CEM cells
# Method: The ability of compounds to protect human CEM cells from HIV-1 infection is measured as a screen for new compounds capable of inhibiting the HIV virus. Five concentrations of drug were tested on uninfected and infected cells and cell growth was measured using a soluble formazan assay. […] Compounds that provided at least 50% protection were retested. Compounds that provided at least 50% protection on retest were listed as moderately active. […]
Give bare numbers, as −log10 of the molar value.

# return pIC50 for each item in the list
1. CCCCC(CCCCCC(CCCC)C1NC(C)Cc2cc(OC)c(OC)cc21)C1NC(C)Cc2cc(OC)c(OC)cc21 (stereo unspecified)
2. COc1cc(/C=C/c2ccc3ccccc3n2)cc(OC)c1OC
3. N#C/C(=C\c1ccc(O)c(O)c1)C(=O)NCCCNC(=O)/C(C#N)=C/c1ccc(O)c(O)c1

output:
1: 6.35; 2: 5.83; 3: 4.18

###

# System: CEM cells HIV-1 protection, formazan growth assay
# test-name: NCI AIDS Antiviral Assay;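 active means compounds giving half or more protection of infected cells from virus-caused growth loss, again on retest; inactive means the rest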
Thanks in advance; please answer with one of these: T for active, F for inactive

Completed entries (count: 3):
input: I'd appreciate the recorded outcome for "Cc1ccc(S(=O)(=O)N2CCCN(S(=O)(=O)c3ccc(C)cc3)CC2)cc1" from this test.
output: F

input: Hey, what did the test say about "O=c1c2c(oc3ccccc13)-c1ccccc1OC2" ?
output: F

input: Hey, what did the test say about "O=C(C(=Cc1ccccc1)C(=O)c1ccccc1)c1ccccc1" ?
output: F

Next:
input: Returns: the outcome recorded for "COc1cc(-c2nn3c(C)c(-c4ccccc4)nc3s2)cc(OC)c1OC" in this assay.
output: T

input: Status in this test for CSc1nc(-c2ccc(Cl)cc2)c(C#N)c(=O)n1C1OC(COC(C)=O)C(OC(C)=O)C(OC(C)=O)C1OC(C)=O (stereo not given) ?
output: F

input: Record request — test call for Cc1ccc(S(=O)(=O)NNC2Oc3cc4c(cc3C(c3ccccc3O)C2C)OCO4)cc1 (stereo not given)
output: F

input: Outcome? "O=C(Oc1ccccc1)C(c1ccccc1)c1ccccc1"
output: F

input: Field: outcome | Entry: NC1CCC(C(=O)C2CCC(O)CC2O)CC1 (stereo not given)
output: F

input: Dear colleague, could you share the recorded outcome for N#CC(NNC(=O)Cc1ccccc1)c1c(O)ccc2ccccc12 (stereo not given) when you have a moment?
output: F

input: Hello, I am checking results. What call was entered for CN(C)C1C(=O)C(C(=O)NCNCCC(=O)O)=C(O)C2(O)C(=O)C3=C(O)c4c(O)cccc4C(C)(O)C3CC12 (stereo not given) ?
output: F

###

# System: CEM cells HIV-1 protection, formazan growth assay
# test-name: NCI AIDS Antiviral Assay;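 active = compounds giving half or more protection of infected cells from virus-caused growth loss, again on retest; inactive = the rest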
One label from this list, please: active, inactive

input: Assay result, entry "O=C1c2cccc3cccc(c23)C(=O)N1CCCCCCCCN1C(=O)c2cccc3cccc(c23)C1=O" — outcome?
output: inactive

input: Short answer needed: outcome of this test for "C=CCOc1cc(NC(=S)c2ccoc2C)ccc1OC" ?
output: active

input: Would you mind telling me which call this test gave "O=S(O)CCCCSSSCCCCS(=O)O" ?
output: inactive

###

# System: CEM cells HIV-1 protection, formazan growth assay
# test-name: NCI AIDS Antiviral Assay
The source made the active and inactive calls.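 The calls were made as follows: active = compounds giving half or more protection of infected cells from virus-caused growth loss, again on retest; inactive = the rest.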 Where a SMILES comes first, the peptide text is derived from it.
Field 'call' accepts active, inactive

Look over these answered cases.
input: Just curious, what result did O=C1CCC(c2ccccc2)CCN1 (stereo unspecified) get here?
output: inactive

input: Fill in: this test's call for "Cn1c(=O)nc2n(-c3ccc(Cl)cc3)c3cc(Cl)ccc3nc-2c1=O" is ___
output: inactive

input: Answer briefly: the call reported for "Nc1c(S(=O)(=O)O)cc2cc(S(=O)(=O)O)ccc2c1N=Nc1ccc(-c2ccc(N=Nc3c(N)c(S(=O)(=O)O)cc4cc(S(=O)(=O)O)ccc34)c(S(=O)(=O)O)c2)cc1" in this assay.
output: active

Continuing:
input: // param item: CC(C)CC(NC(=O)C(Cc1ccc(O)cc1)NC(=O)C(CO)NC(=O)C(N)CCC(N)=O)C(=O)NCC(=O)O (stereo unspecified) (H-QSYLG-OH; configuration not given here) ; yields the recorded call
output: inactive

input: Test call, this compound: "FC(F)(F)c1cc(Cl)c2ccc3ccccc3c2n1"
output: inactive

input: Look up the recorded call for COc1ccc(C(c2ccc(C(C)C)cc(=O)c2O)c2c(O)cc3oc(-c4ccccc4)cc(=O)c3c2O)cc1 (stereo unspecified) in this test.
output: inactive

input: Which outcome was entered for the compound COc1cc2c(cc1OC)C(=O)N1CCCC1C(=O)S2 (stereo unspecified) in this test?
output: inactive

input: Hi, do you know how "C[P+]1(C)CCc2c1ccc1ccccc21" came out in this test?
output: inactive

input: How was CC1CC2(C)ON=C(c3ccccc3)N2c2ccccc2S1 (stereo unspecified) classified in this test?
output: inactive

input: Could you check what this test reported for "Cc1cccc(NC(=O)C(=O)Cc2nc3ccccc3[nH]c2=O)c1C" ?
output: inactive

input: Status in this test for "O=C1OC(=O)c2c1cc1cc3c(cc1c2-c1ccc2c(c1)OCO2)OCO3" ?
output: inactive

input: Could you check what this test reported for "O=C1OC(c2ccccc2)(c2ccccc2)c2ccc3ccc(F)cc3c21" ?
output: inactive

input: Hi, sorry to bother you, what did the test record for "CC1(C)OC(=O)NC1=O" ?
output: inactive

input: What outcome does the record of this test show for CN1CC(=O)N2Cc3ccccc3-n3cccc3C2C1 (stereo unspecified) ?
output: inactive

input: Assay outcome for "CCN(CC)c1ccc2cc(S(=O)(=O)c3ccccc3)c(=O)oc2c1" : what was it?
output: inactive

input: Please let me know the test result on file for "CC(=O)c1ccc(NC(=S)NN)cc1" .
output: inactive

input: Test call, this compound: CC(=O)NC1C(OCc2ccccc2)OC(CO)C(O)C1OC(C)C(=O)NC(C)C(=O)N[C@@H](CCC(=O)OCCCNC1c2ccccc2Nc2cccc([N+](=O)[O-])c21)C(N)=O (stereo partly specified)
output: inactive

input: Per the records of this test, what outcome belongs to "CN(C)CCCNC(=O)c1cc(NC(=O)c2cc(NC(=O)[C@@H]3C[C@H]3C(=O)Nc3cc(C(=O)Nc4cc(C(=O)NCCCN(C)C)n(C)c4)n(C)c3)cn2C)cn1C" ?
output: inactive

input: // outcome(item) with item = "CC/C(=C(\c1ccccc1)c1ccc(OCC[N+](C)(C)C)cc1)c1ccccc1"
output: inactive

input: Hi, do you know how "Cc1ccc(S(=O)(=O)N2C[C@H](O)C[C@H]2C(=O)O)cc1" came out in this test?
output: inactive

input: Record request — test call for "NC(=S)N/N=C\C12CC3CC(CC(C3)C1)C2"
output: inactive
